experiment: NCI Yeast Anticancer Drug Screen. Data for the mec2-1 strain (AID 157); conditions: S. cerevisiae mec2-1 strain, at 50.0 µM, stronger effect = higher value
This is part of a sample that, as a whole, favours compounds with a hit. Of some 79,000 tested, about 15% had one in any assay.
PARAMETER: growth inhibition (%)
Only the number, expressed in %, is required.

INSERT INTO assay_data (compound, measurement) VALUES
  ('c1ccc(Oc2ccccc2-c2ccccc2)cc1', -26.1);

-- ask If you can, please state the reported growth inhibition value of Cc1ccc(N=NN(C)C)cc1 .
-- reply 3.65

-- ask Now try O=c1ccc(-c2ccccc2)n[nH]1 .
-- reply -0.2

-- ask Same again, this time with CC(/C=C/c1ccccc1)=N\NC(=O)c1ccccc1
-- reply 5.3

-- ask Also, NC(CSS(=O)(=O)O)C(=O)O (stereo unspecified) please.
-- reply -2.4

-- ask // repeat for Cc1ccc([N+](=O)[O-])c(N)n1 and report
-- reply -5.65

-- ask How about this compound: CCCCCC1CCC(O)CC1 (stereo unspecified)
-- reply 6.55

-- ask Note, next up: CC(C)(C)c1ccc(OC(=S)Nc2ccccc2)cc1
-- reply -6.25

-- ask Do the same for CC(=O)CC(=O)CCCCC(=O)O please
-- reply -11.1

-- ask Moving on to N#Cc1c(-c2ccco2)cc(-c2ccccc2)[nH]c1=O
-- reply 8.1

-- ask Repeat with CCCCC(C)NC(=O)c1ccccc1 (stereo unspecified)
-- reply 11.3

====

experiment: NCI Yeast Anticancer Drug Screen. Data for the bub3 strain (AID 167); conditions: S. cerevisiae bub3 mutant strain, at 50.0 µM, stronger effect = higher value
Compounds without any hit were thinned out: in the full panel of roughly 79,000, 15% have a hit.
PARAMETER: growth inhibition (%)
Give a bare numeral; the unit % is implied.

Below, 8 compounds whose answers are already recorded.
INSERT INTO results (compound, unit_text, measurement) VALUES
  ('COc1c(C)c(OC)c(C(=O)CC(C)C)c(OC)c1C', '%', 19.7),
  ('O=[N+]([O-])c1ccc(OS(=O)(=O)Cc2ccccc2)cc1', '%', 3.95),
  ('Cn1cc(C(=O)C2CCCCC2)ccc1=O', '%', -14.2),
  ('Cc1[nH]c2c(O)ccc(O)c2c1C', '%', -8),
  ('CC(C)CC(NC(=O)CCCCCl)C(=O)O (centres undefined)', '%', -3.4),
  ('N#CCCC(=O)c1ccccc1', '%', 5.15),
  ('COc1ccc2nc(NC(=O)C(=O)C(C#N)c3ccc(CC#N)cc3)sc2c1 (centres undefined)', '%', 0.15),
  ('NC(=O)c1ccccc1N1CCCCC1', '%', 32.5);

-- ask Quick one: growth inhibition for O=C(c1ccccc1)C1CC2C=CC1C2 (centres undefined) ?
-- reply -0.7

-- ask Here is the next compound: COc1ccc2c(c1)C1CCCCC1SCC2=O (centres undefined)
-- reply 15.8

-- ask Field entry: CC(C)(S)CNCCSC(=O)c1ccccc1
-- reply 63.5

====

assay: NCI Yeast Anticancer Drug Screen. Data for the cln2 rad14 strain (AID 165);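 note: 0% = growth equal to vehicle treated cultures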; conditions: S. cerevisiae cln2 rad14 strain, at 50.0 µM, stronger effect = higher value
About 79,000 compounds went through this panel and 15% of them were active in at least one assay; those are over-represented in the sample as a whole.
PARAMETER: growth inhibition (%)
# output: bare number, implied unit %

Before answering, review these 10 worked examples.
INSERT INTO measurements (compound, parameter, unit_text, measurement) VALUES
  ('Cc1c(O)c(=O)ccn1CCN', 'growth inhibition', '%', -34),
  ('CCCCCCCCCCCCC/C=C/CC(CC(=O)Nc1ccc(-n2c(=O)cc(C)n2C)cc1)C(=O)O (configuration not stated)', 'growth inhibition', '%', 21.2),
  ('c1cc(OCCOc2cccc3ocnc23)c2ncoc2c1', 'growth inhibition', '%', -14.8),
  ('CC(C)=CCc1c(O)ccc(C(=O)C2C(c3c(O)cc(-c4cc5ccc(O)cc5o4)cc3O)C=C(C)CC2c2ccc(O)cc2O)c1O (configuration not stated)', 'growth inhibition', '%', 89.4),
  ('CCOC(=O)Oc1ccc(C(=O)Oc2ccccc2)cc1OC', 'growth inhibition', '%', -48.8),
  ('CCN(CC)CCN1C(=O)c2cccc3cc(N)cc(c23)C1=O', 'growth inhibition', '%', -3.75),
  ('COC(=O)CC1NC(=O)[C@]1(C)[C@H](C)O (some centres not stated)', 'growth inhibition', '%', -14.3),
  ('CCN(CC)c1ccc(N=C2C=CC(=O)C(C)=C2)c(C)c1', 'growth inhibition', '%', -23.4),
  ('COC(=O)CC(C(C(=O)OC)C(=O)OC)N1C(=O)OCC1c1ccccc1 (configuration not stated)', 'growth inhibition', '%', -12.3),
  ('NC(=O)C1CC2CC(Cl)C1C2 (configuration not stated)', 'growth inhibition', '%', -45);

-- ask Given the entry Oc1nc2nc[nH]n2c1N=Nc1ccccc1 , report its measured growth inhibition.
-- reply -12.5

-- ask Please give the result for CC1(C)OC(=O)CC2(C)OC12 (configuration not stated) too.
-- reply -16.4

-- ask CCOC(=O)C(CCC#N)(CCC#N)C(C)=O ?
-- reply -64.8

-- ask Likewise for C1CCC(N=C2N(C3CCCCC3)C(=NC3CCCCC3)N2C2CCCCC2)CC1 ?
-- reply -19.6

-- ask What about this compound? O=S1Nc2ccccc2[C@H]2[C@@H]1[C@H]1O[C@@H]2c2ccccc21 (some centres not stated)
-- reply -27.6

-- ask Item: CCC(O)CNCc1c2ccccc2cc2ccccc12 (configuration not stated)
-- reply 12.6

-- ask Next compound up: ClCCOc1ccc2ccccc2c1
-- reply 4.05

====

Documented growth inhibition across a set of compounds
assay: NCI Yeast Anticancer Drug Screen. Data for the sgs1 mgt1 strain (AID 161);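 note: 0% = growth of cultures given vehicle only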; conditions: S. cerevisiae sgs1 mgt1 strain, at 50.0 µM, stronger effect = higher value
Compounds without any hit were thinned out: in the full panel of roughly 79,000, 15% have a hit.
Numeric answer only, unit % assumed.

-- ask So what does the record say about growth inhibition for CSSC(SSC)C(SSC)SSC ?
-- reply 43.4

-- ask # repeat for CC1(C)CCCC2(C)[C@@H]1CC[C@]13C[C@](C)(CC[C@@H]21)[C@@H]3CO (stereo partly drawn)
-- reply -22.6

====

Assay: NCI Yeast Anticancer Drug Screen. Data for the cln2 rad14 strain (AID 165);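 note: 0% = growth equal to vehicle treated cultures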
Settings: S. cerevisiae cln2 rad14 strain, at 50.0 µM, stronger effect = higher value
Procedure: Growth inhibition of yeast strains with defined genetic alterations is measured as a screen for potential anti-cancer activity. Selected strains with alterations in DNA damage repair or cell cycle control were exposed to compounds and growth inhibition was measured relative to vehicle treated controls. The strain used in this assay is cln2 rad14
About 79,000 compounds went through this panel and 15% of them were active in at least one assay; those are over-represented in the sample as a whole.
Measured growth inhibition, listed per entry for reference.
Expressed in %, but write only the number.

Here are 3 compounds together with their reported answers.
INSERT INTO measurements (compound, parameter, measurement) VALUES
  ('NC(=N\C1=NCCN1)/C(N)=N/C1=NCCN1', 'growth inhibition', -29.5),
  ('COc1ccc(/C=C2\CCC/C(=C\c3ccc(O)c(CN4CCCCC4)c3)C2=O)cc1', 'growth inhibition', 83),
  ('Cc1ccc(N(C)C)cc1', 'growth inhibition', -18.4);

-- ask Which growth inhibition value is on record for O=C(O)[C@H](c1ccccc1)[C@@H](C(=O)O)c1ccccc1 ?
-- reply -3.35

-- ask Another compound: COc1ccc2c(c1)C1(C)CCCC(C)(C=O)C1CC2 (configuration not stated)
-- reply -1.25

-- ask Then what about the compound NC(CCCCNCc1ccccc1O)C(=O)O (configuration not stated) ?
-- reply 7.45

-- ask Could you do the same for Cn1c(=O)c2c(nc3sc4c(n32)C(=O)c2c(O)ccc(O)c2C4=O)n(C)c1=O , please?
-- reply 55.2

-- ask Param item: NC(=S)N/C=C(/c1ccc(Cl)cc1Cl)S(=O)(=O)Cc1ccc(Cl)cc1Cl
-- reply 6.95

-- ask Item: COc1cccc2c(C(=O)O)cc(-c3ccc(Cl)cc3)nc12
-- reply 15.2

-- ask Record: COc1cc2c(c(OC)c1OC)-c1ccc(SCC3CCC4CC3C4(C)C)c(=O)cc1C(NC(C)=O)CC2 (configuration not stated)
-- reply 96.2

-- ask Field entry: Cc1ccc(C(=O)Oc2ccccc2)cc1
-- reply -34.2

-- ask How about this compound: SCCNCc1ccco1
-- reply 20.6

-- ask Field entry: O=C(c1ccco1)N(C(=S)N1CCN(c2ccccc2)CC1)c1ccccc1
-- reply -4.4

-- ask Follow-up item: COc1cc(NC=C2C(=O)OC(C)(C)OC2=O)c(OC)c(C)c1OC
-- reply 0.5

-- ask What about CCOc1ccccc1Br ?
-- reply -9.8

-- ask Next up: Cc1ccccc1NC(=O)CSc1nnc(-c2ccc(N=Cc3ccc(Cl)cc3)cc2)o1
-- reply -4.75

-- ask Try the compound Cn1cnc([N+](=O)[O-])c1SC1=NCCS1
-- reply 25.3

-- ask Thanks! And OCc1ccccc1O ?
-- reply 25.8

-- ask Same question, CCOc1ccc2c(N=[N+]=[N-])cc(C)nc2c1 this time
-- reply -67.8
